TEST: S. cerevisiae growth modulation with rapamycin, primary screen, strain BY4716, OD600, 96 h (AID 1091); further: test concentration not given here
CONDITION_CONTEXT: higher = more signal, called active from +8 up or from −8 down
MEASUREMENT_TYPE: z-score

COMPOUND	MEASUREMENT_TYPE	QUANTITATIVE_RESULT
CCOC(=O)C[C@H]1[C@H](OC(=O)c2ccc(C(=O)c3ccccc3)cc2)[C@@H](NC(=O)c2ccc3ccccc3c2)c2cc(OCCCO)ccc2N1C(=O)Cc1ccc(OC)cc1	z-score	0.118
Cc1ccc(S[C@]2(C(=O)NC3CC3)CC(=O)N(Cc3ccccc3)[C@@H]2c2ccc(CO)cc2I)cc1	z-score	0.0377
COC(=O)C(CC#Cc1ccc2c(c1)[C@]1(C(=O)N2)[C@H](c2ccc(OCCO)cc2)N2[C@H](c3ccccc3)[C@H](c3ccccc3)OC(=O)[C@H]2[C@@H]1C(=O)N1CCc2cc(OC)c(OC)cc2C1)C(=O)OC	z-score	5.14
CC(C)C(CO)N1C(=O)[C@@H]2C3C(=O)OCCC/C=C\[C@H]3OC23C=CCN(CCN2CCOCC2)C(=O)[C@@H]13 (stereo partly specified)	z-score	0.205
COc1ccc(C(O)C2C=CC3C(=O)N(Cc4ccccc4)C(=O)C3N2n2cnnc2)cc1OCc1ccccc1 (stereo unspecified)	z-score	-0.62
COc1ccc(C#Cc2ccc3c(c2)[C@]2(C(=O)N3)[C@H](C(=O)NC[C@H](O)c3ccccc3)[C@H]3C(=O)O[C@H](c4ccccc4)[C@H](c4ccccc4)N3[C@@H]2c2ccc(O)cc2)cc1	z-score	2.2
COC(=O)[C@H](Cc1ccccc1)N[C@@H](/C=C/C1CC1)[C@H](O)Cc1ccccc1	z-score	-0.581
COCCOC(=O)N1C(=O)[C@@]2(c3cc(C#Cc4ccc(OC)cc4)ccc31)[C@H](c1ccccc1OCCO)N1[C@H](c3ccccc3)[C@H](c3ccccc3)OC(=O)[C@H]1[C@@H]2C(=O)NC[C@H](O)c1ccccc1	z-score	7.27
COc1ccc([Si](C)(C)[C@@H]2[C@@H](CCO)O[C@]3(C(=O)N(Cc4ccc(N(C=O)c5ccccc5)cc4)c4ccccc43)[C@H]2C)cc1	z-score	25.3
CC(C)C(O)C1C=CC2C(=O)N(c3ccccc3)C(=O)C2N1Nc1ccc([N+](=O)[O-])cc1 (stereo unspecified)	z-score	0.834
C=CCNC(=O)[C@@H]1[C@H]2C(=O)O[C@H](c3ccccc3)[C@H](c3ccccc3)N2[C@H](c2ccc(O)cc2)[C@@]12C(=O)N(C(=O)OCCOC)c1ccc(C#CCNC(N)=O)cc12	z-score	0.462
COCCOC(=O)N1C(=O)[C@@]2(c3cc(C#CCCO)ccc31)[C@H](C(N)=O)[C@H]1C(=O)O[C@H](c3ccccc3)[C@H](c3ccccc3)N1[C@@H]2c1ccc(O)cc1	z-score	-0.535
O=C1NC(=O)C2C1C=CC(C(O)c1cccs1)N2Nc1ccc(Cl)cc1Cl (stereo unspecified)	z-score	1.74
COc1cc2c(cc1OC)CN(C(=O)[C@@H]1[C@H]3C(=O)O[C@H](c4ccccc4)[C@H](c4ccccc4)N3[C@H](c3ccc(O)cc3)[C@@]13C(=O)Nc1ccccc13)CC2	z-score	0.637
COC(=O)[C@@]1(Cc2ccc(F)cc2)[C@H]2c3cc(C(=O)N(C)C)n(Cc4ccccc4)c3C[C@H]2CN1C(=O)c1ccccc1	z-score	3.85
COC(=O)[C@@]1(Cc2ccc(OC)cc2)[C@H]2c3cc(C(=O)N(C)C)n(C)c3C[C@H]2CN1C(=O)c1ccccc1	z-score	9.05
COc1cc(COC(C)=O)ccc1OC(C)=O	z-score	-0.724
C=CCC(OC(C)=O)[C@@H]1[C@@H](N(Cc2ccc(-c3ccccc3)cc2)C(=O)Cc2ccc(OC)cc2)c2cc(OCCCO)ccc2N1C(=O)Cc1ccc2ccccc2c1 (stereo partly specified)	z-score	-0.238
Cc1ccc(S[C@]2(C(=O)NCCCN(C)C)CC(=O)N(Cc3ccccc3C(F)(F)F)[C@@H]2c2ccc(CO)cc2)cc1	z-score	-0.914
CCCC[C@@H]1C[C@H]1[C@@H](NC(=O)C(C)(C)C)c1ccc(C(F)(F)F)cc1	z-score	0.329
CCc1cccc(NC(=O)O[C@H]2[C@H](OC(=O)Nc3ccccc3-c3ccccc3)[C@@H](OC(=O)Nc3ccccc3-c3ccccc3)[C@@H](OC)O[C@@H]2CO)c1	z-score	-2.51
CCCC[C@H]1OB(O)C[C@H]2C1=C(COC)C[C@H]1C(=O)N(C)C(=O)[C@H]12	z-score	-0.635
COCCOC(=O)N1C(=O)[C@@]2(c3ccccc31)[C@H](C(=O)N1CCc3cc(OC)c(OC)cc3C1)[C@H]1C(=O)O[C@H](c3ccccc3)[C@H](c3ccccc3)N1[C@@H]2c1ccc(OCCO)cc1	z-score	4.47
COC(=O)C(CC#Cc1ccc2c(c1)[C@]1(C(=O)N2)[C@H](C(=O)Nc2nc3ccccc3s2)[C@H]2C(=O)O[C@H](c3ccccc3)[C@H](c3ccccc3)N2[C@@H]1c1ccc(O)cc1)C(=O)OC	z-score	0.746
COCCOC(=O)N1C(=O)[C@@]2(c3cc(C#CCNC(N)=O)ccc31)[C@H](C(=O)Nc1nc3ccccc3s1)[C@H]1C(=O)O[C@H](c3ccccc3)[C@H](c3ccccc3)N1[C@@H]2c1ccc(OCCO)cc1	z-score	2.79
C=C(C)[C@@H]1CC=C(C(O)C2C=CC3C(=O)N(c4ccccc4)C(=O)C3N2Nc2ccccc2)CC1 (stereo partly specified)	z-score	0.0587
